# Measured On: DN-IV quality control recombinant protein (produced by the company) (dengue virus)
# Assay Info: BLI, antibody on AMC sensor
Mark not fulfilled for koff values under 0.0002 s⁻¹, and fulfilled for everything at or above.

[
  {
    "Binder": "Mutation 1-20 (antibody, V domains shown) VH: EVQLQQPGPELVKPGASVKMSCKASGYTFTSYVIHWVRQKPGQGLEWIGYMNPYNDGLKYNEKFIGKAILTSDKSSSTAYMQLSSLTSEDSAVYYCTKEGLFYVFDYWGQGTSVTVSS VL: QIVLTQSPAIMSASPGEKVTMTCSATSSISYMHWYQQKSGTSPKRWIYDSSKLASGVPVRFSGSGSGTSYSLTISSMEAEDAATYFCQYWRSDLPTFGAGTKLELKR",
    "Label Class": "not fulfilled"
  },
  {
    "Binder": "Mutation 1-41 (antibody, V domains shown) VH: EVQLQQPGPELVKPGASVKMSCKASGYTFTSYVIHWVRQKPGQGLEWIGYMNPYNDGIKYNEKFIGKAILTSDKSSSTAYMQLSSLTSEDSAVYYCTREGLFYVMDYWGQGTSVTVSS VL: QIVLTQSPAIMSASPGEKVTMTCSATSSISYMHWYQQKSGTSPKRWIYDSSKLASGVPVRFSGSGSGTSYSLTISSMEAEDAATYFCQWWRSDLPTFGAGTKLELKR",
    "Label Class": "not fulfilled"
  },
  {
    "Binder": "Mutation 1-34 (antibody, V domains shown) VH: EVQLQQPGPELVKPGASVKMSCKASGYTFTSSVIHWVRQKPGQGLEWIGYMNPYNDGIKYNEKFIGKAILTSDKSSSTAYMQLSSLTSEDSAVYYCTREGLFYVFDYWGQGTSVTVSS VL: QIVLTQSPAIMSASPGEKVTMTCSATSSLSYMHWYQQKSGTSPKRWIYDTSKLASGVPVRFSGSGSGTSYSLTISSMEAEDAATYFCQYWRSDLPTFGAGTKLELKR",
    "Label Class": "not fulfilled"
  },
  {
    "Binder": "Mutation 1-44 (antibody, V domains shown) VH: EVQLQQPGPELVKPGASVKMSCKASGYTFTSYVIHWVRQKPGQGLEWIGYMNPYNDGLKYNEKFIGKAILTSDKSSSTAYMQLSSLTSEDSAVYYCTREGLFYVFDYWGQGTSVTVSS VL: QIVLTQSPAIMSASPGEKVTMTCSATSSVSYMHWYQQKSGTSPKRWIYDSSKLASGVPVRFSGSGSGTSYSLTISSMEAEDAATYFCQYWRSDLPTFGAGTKLELKR",
    "Label Class": "not fulfilled"
  },
  {
    "Binder": "Mutation 1-23 (antibody, V domains shown) VH: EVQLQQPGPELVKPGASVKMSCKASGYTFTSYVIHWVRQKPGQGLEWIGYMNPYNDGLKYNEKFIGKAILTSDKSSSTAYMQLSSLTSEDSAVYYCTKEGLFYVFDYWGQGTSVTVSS VL: QIVLTQSPAIMSASPGEKVTMTCSATSSLSYMHWYQQKSGTSPKRWIYDSSKLASGVPVRFSGSGSGTSYSLTISSMEAEDAATYFCQQWRSDLPTFGAGTKLELKR",
    "Label Class": "not fulfilled"
  }
]

## Task Record Mutation 1-28 (antibody, V domains shown) VH: EVQLQQPGPELVKPGASVKMSCKASGYTFTSSVIHWVRQKPGQGLEWIGYMNPYNDGIKYNEKFIGKAILTSDKSSSTAYMQLSSLTSEDSAVYYCTKEGLFYVMDYWGQGTSVTVSS VL: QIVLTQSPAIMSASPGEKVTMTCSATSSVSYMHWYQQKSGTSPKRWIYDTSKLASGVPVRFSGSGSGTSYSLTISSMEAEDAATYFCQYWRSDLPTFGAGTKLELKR ; criterion: koff no lower than 0.0002 s⁻¹. Met?
## Result fulfilled

## Task Record Mutation 1-31 (antibody, V domains shown) VH: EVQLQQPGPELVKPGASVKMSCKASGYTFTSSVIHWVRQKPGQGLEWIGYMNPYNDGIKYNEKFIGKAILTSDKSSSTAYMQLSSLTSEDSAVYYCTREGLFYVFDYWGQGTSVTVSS VL: QIVLTQSPAIMSASPGEKVTMTCSATSSVSYMHWYQQKSGTSPKRWIYDSSKLASGVPVRFSGSGSGTSYSLTISSMEAEDAATYFCQWWRSDLPTFGAGTKLELKR ; criterion: koff no lower than 0.0002 s⁻¹. Met?
## Result fulfilled

## Task Record Mutation 1-33 (antibody, V domains shown) VH: EVQLQQPGPELVKPGASVKMSCKASGYTFTSTVIHWVRQKPGQGLEWIGYMNPYNDGLKYNEKFIGKAILTSDKSSSTAYMQLSSLTSEDSAVYYCTREGLFYVFDYWGQGTSVTVSS VL: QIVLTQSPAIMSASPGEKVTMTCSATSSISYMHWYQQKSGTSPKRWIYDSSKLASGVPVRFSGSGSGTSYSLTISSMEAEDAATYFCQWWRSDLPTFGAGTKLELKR ; criterion: koff no lower than 0.0002 s⁻¹. Met?
## Result fulfilled

## Task Record Mutation 1-19 (antibody, V domains shown) VH: EVQLQQPGPELVKPGASVKMSCKASGYTFTSSVIHWVRQKPGQGLEWIGYMNPYNDGIKYNEKFIGKAILTSDKSSSTAYMQLSSLTSEDSAVYYCTREGLFYVMDYWGQGTSVTVSS VL: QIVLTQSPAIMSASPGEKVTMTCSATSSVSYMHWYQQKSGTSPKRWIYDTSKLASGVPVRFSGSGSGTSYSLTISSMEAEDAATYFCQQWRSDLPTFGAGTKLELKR ; criterion: koff no lower than 0.0002 s⁻¹. Met?
## Result not fulfilled

## Task Record Mutation 1-9 (antibody, V domains shown) VH: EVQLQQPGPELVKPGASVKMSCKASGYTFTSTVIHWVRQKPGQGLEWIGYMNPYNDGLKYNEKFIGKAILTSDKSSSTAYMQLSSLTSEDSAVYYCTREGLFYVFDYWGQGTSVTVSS VL: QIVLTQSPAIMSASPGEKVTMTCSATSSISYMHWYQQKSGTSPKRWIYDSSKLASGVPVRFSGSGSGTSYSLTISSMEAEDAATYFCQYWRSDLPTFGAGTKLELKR ; criterion: koff no lower than 0.0002 s⁻¹. Met?
## Result fulfilled
